All figures here come from patent US20210380703A1.

Quick list: optical density per entry.
Molecular target: T1, human ACVR2A (human, UniProt P27037 20-135, limits assumed); further: test concentration or dose not given here
T1 construct: also called activin receptor, type II A
T1 sequence (P27037 20-135 limits assumed): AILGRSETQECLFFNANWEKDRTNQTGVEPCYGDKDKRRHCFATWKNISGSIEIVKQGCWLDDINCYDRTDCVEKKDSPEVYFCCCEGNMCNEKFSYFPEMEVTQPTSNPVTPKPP
Experiment: ELISA
Protocol: The binding of ACVR2A-specific monoclonal antibodies to human ACVR2A, mouse ACVR2A, biotinylated goat anti-human kappa light chain (positive control) and human Fc (negative control) were determined by ELISA.

373_B01 (antibody, V domains shown, Group II) VH: EVQLLESGGGLVQPGGSLRLSCAASGFTFDSYGMHWVRQAPGKGLEWVSGINYNGGYKSYADSVKGRFTISRDNSKNTLYLQMNSLRAEDTAVYYCARAATWHDTHLDYWGQGTLVTVSS VL: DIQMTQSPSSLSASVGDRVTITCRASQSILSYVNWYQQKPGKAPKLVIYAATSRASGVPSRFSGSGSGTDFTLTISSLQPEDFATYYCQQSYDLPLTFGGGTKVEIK ... 3.26 OD

Using known records, supply optical density for 370_E12 (antibody, V domains shown, Group II) VH: EVQLLESGGGLVQPGGSLRLSCAASGFTFDSYGMHWVRQAPGKGLEWVAGINYNGGYTSYADSVKGRFTISRDNSKNTLYLQMNSLRAEDTAVYYCARAATWHDTHLDYWGQGTLVTVSS VL: DIQMTQSPSSLSASVGDRVTITCRASQSILSYVNWYQQKPGKAPKLLIYAATSRASGVPSRFSGSGSGTDFTLTISSLQPEDFATYYCQQSYENPLTFGGGTKVEIK
3.39 OD

Using known records, supply optical density for 372_E02 (antibody, V domains shown, Group I) VH: EVQLLESGGGLVQPGGSLRLSCAASGFTFSSYGMNWVRQAPGKGLEWVASINYNGGYTSYADSVKGRFTISRDNSKNTLYLQMNSLRAEDTAVYYCARAANWHDTALDYWGQGTLVTVSS VL: DIQMTQSPSSLSASVGDRVTITCRASQSIISYVNWYQQKPGKAPKLVIYAATSRASGVPSRFSGSGSGTDFTLTISSLQPEDFATYYCQQSYDLPLTFGGGTKVEIK
2.84 OD
